- Assay Procedure: Therapeutic index, ratio of IC50 for human H9 cells to EC50 for HIV1
- Format: cell-based
- Recorded Conditions: h9
Observable: pTI

# Compound Structure, Reported Measurement
records = [
    ("CC(C)[C@@H]1CC[C@]2(COC(=O)CCCC(=O)O)CC[C@]3(C)[C@H](CC[C@@H]4[C@@]5(C)CC[C@H](OC(=O)CCCC(=O)O)C(C)(C)[C@@H]5CC[C@]43C)[C@@H]12", -1.23),
    ("C=C(C)[C@@H]1CC[C@]2(C(=O)O)CC[C@]3(C)[C@H](CC[C@@H]4[C@@]5(C)CC[C@H](OC(=O)CCCC(=O)O)C(C)(C)[C@@H]5CC[C@]43C)[C@@H]12", -2.465),
    ("C=C(C)[C@@H]1CC[C@]2(C(=O)O)CC[C@]3(C)[C@H](CC[C@@H]4[C@@]5(C)CC[C@H](OC(=O)COCC(=O)O)C(C)(C)[C@@H]5CC[C@]43C)[C@@H]12", -3.069),
    ("CC(C)[C@@H]1CC[C@]2(C(=O)O)CC[C@]3(C)[C@H](CC[C@@H]4[C@@]5(C)CC[C@H](OC(=O)CC(C)(C)CC(=O)O)C(C)(C)[C@@H]5CC[C@]43C)[C@@H]12", -3.007),
    ("C=C(C)[C@@H]1CC[C@]2(NOC(=O)CCC(C)(C)CC(=O)O)CC[C@]3(C)[C@H](CC[C@@H]4[C@@]5(C)CC/C(=N\\OC(=O)CCC(C)(C)CC(=O)O)C(C)(C)[C@@H]5CC[C@]43C)[C@@H]12", -0.532),
    ("CC(C)[C@@H]1CC[C@]2(COC(=O)CC(C)(C)CC(=O)O)CC[C@]3(C)[C@H](CC[C@@H]4[C@@]5(C)CC[C@H](OC(=O)CC(C)(C)CC(=O)O)C(C)(C)[C@@H]5CC[C@]43C)[C@@H]12", -3.353),
    ("CC(C)[C@@H]1CC[C@]2(C(=O)OCc3ccccc3)CC[C@]3(C)[C@H](CC[C@@H]4[C@@]5(C)CC[C@H](OC(=O)CC(C)(C)C(=O)O)C(C)(C)[C@@H]5CC[C@]43C)[C@@H]12", -1.748),
    ("CC(C)[C@@H]1CC[C@]2(C(=O)O)CC[C@]3(C)[C@H](CC[C@@H]4[C@@]5(C)CC[C@H](OC(=O)CC(C)(C)C(=O)O)C(C)(C)[C@@H]5CC[C@]43C)[C@@H]12", -4.146),
    ("CC(C)[C@@H]1CC[C@]2(C(=O)OC(=O)OCN(C)C)CC[C@]3(C)[C@H](CC[C@@H]4[C@@]5(C)CC[C@H](O)C(C)(C)[C@@H]5CC[C@]43C)[C@@H]12", 0),
    ("CC(C)CC(=O)O[C@H]1CC[C@]2(C)[C@H]3CC[C@@H]4[C@H]5[C@H](C(C)C)CC[C@]5(C(=O)O)CC[C@@]4(C)[C@]3(C)CC[C@H]2C1(C)C", -1.748),
]

###

- Assay Procedure: Therapeutic index, ratio of IC50 for human H9 cells to EC50 for HIV1
- Type: cell-based
- Recorded Conditions: h9
pTI reference

# Compound, pTI
rows = [
    ("CC(C)[C@@H]1CC[C@]2(C(=O)O)CC[C@]3(C)[C@H](CC[C@@H]4[C@@]5(C)CC[C@H](OC(=O)C(C)(C)CC(=O)O)C(C)(C)[C@@H]5CC[C@]43C)[C@@H]12", -1.14),
    ("C=C(C)[C@@H]1CC[C@]2(C(=O)OC(=O)N3CCOCC3)CC[C@]3(C)[C@H](CC[C@@H]4[C@@]5(C)CC[C@H](O)C(C)(C)[C@@H]5CC[C@]43C)[C@@H]12", -0.556),
    ("C=C(C)[C@@H]1CC[C@]2(C(=O)NCCCCCCCC(=O)N[C@@H](CC(C)C)[C@@H](O)CC(=O)O)CC[C@]3(C)[C@H](CC[C@@H]4[C@@]5(C)CC[C@H](O)C(C)(C)[C@@H]5CC[C@]43C)[C@@H]12", -1.544),
    ("C=C(C)[C@@H]1CC[C@]2(C(=O)O)CC[C@]3(C)[C@H](CC[C@@H]4[C@@]5(C)CC[C@H](OC(=O)CC(C)(C)C(=O)O)C(C)(C)[C@@H]5CC[C@]43C)[C@@H]12", -4.301),
    ("C=C(C)[C@@H]1CC[C@]2(CO)CC[C@]3(C)[C@H](CC[C@@H]4[C@@]5(C)CC[C@@H](O)C(C)(C)[C@@H]5CC[C@]43C)[C@@H]12 [3-EPI-BETULIN]", -0.532),
    ("CC(CC(=O)O)CC(=O)OC[C@]12CC[C@@H](C(C)C)[C@@H]1[C@H]1CC[C@@H]3[C@@]4(C)CC[C@H](OC(=O)CC(C)CC(=O)O)C(C)(C)[C@@H]4CC[C@@]3(C)[C@]1(C)CC2 (some centres undefined)", -2.512),
    ("C=C(C)[C@@H]1CC[C@]2(COC(=O)CC3(CC(=O)O)CCCC3)CC[C@]3(C)[C@H](CC[C@@H]4[C@@]5(C)CC[C@H](O)C(C)(C)[C@@H]5CC[C@]43C)[C@@H]12", -0.785),
    ("C=C(COC(=O)CC1(CC(=O)O)CCCC1)[C@@H]1CC[C@]2(COC(=O)CC3(CC(=O)O)CCCC3)CC[C@]3(C)[C@H](CC[C@@H]4[C@@]5(C)CC[C@H](OC(=O)CC6(CC(=O)O)CCCC6)C(C)(C)[C@@H]5CC[C@]43C)[C@@H]12", -3.076),
    ("C=C(CO)[C@@H]1CC[C@]2(CO)CC[C@]3(C)[C@H](CC[C@@H]4[C@@]5(C)CC[C@H](O)C(C)(C)[C@@H]5CC[C@]43C)[C@@H]12 [30-HYDROXY-BETULIN]", -0.447),
]
